Below is a list of entries, each paired with its recorded intrinsic dissolution rate (IDR) value.
- ASSAY_COMMENT: Intrinsic dissolution rate, Rotation Disc Method (USP 1087)
- Format: physicochemical
- CONDITION_LABEL: Hydrochloride, pH 1 (0.1 M HCl), 37° C., 100 rpm, average of two measurements
Where a name gives a salt, the structure may show the parent alone.
// unit must come after the numeric part

A selection of reference data follows.
| COMPOUND | PROPERTY_MEASURED | VALUE |
| --- | --- | --- |
| O=C(O)CC(=O)O.O=C(c1ccc(OCCN2CCCCC2)cc1)c1c(-c2ccc(O)cc2)sc2cc(O)ccc12 [Malonate] | intrinsic dissolution rate (IDR) | 0.0229 μmol/min * cm^2 |
| CC(O)C(=O)O.O=C(c1ccc(OCCN2CCCCC2)cc1)c1c(-c2ccc(O)cc2)sc2cc(O)ccc12 [DL-lactate hemihydrate] | intrinsic dissolution rate (IDR) | 0.0056 μmol/min * cm^2 |

Exercise: Please report the recorded intrinsic dissolution rate (IDR) for C[C@H](O)C(=O)O.O=C(c1ccc(OCCN2CCCCC2)cc1)c1c(-c2ccc(O)cc2)sc2cc(O)ccc12 [L-lactate hemihydrate] .
Solution: 0.0475 μmol/min * cm^2

Exercise: Would you mind telling me what intrinsic dissolution rate (IDR) value was observed for O=C(c1ccc(OCCN2CCCCC2)cc1)c1c(-c2ccc(O)cc2)sc2cc(O)ccc12 [Hydrochloride, raloxifene hydrochloride, reference compound] ?
Solution: 0.0022 μmol/min * cm^2

Exercise: I have this compound here, C[C@H](O)C(=O)O.O=C(c1ccc(OCCN2CCCCC2)cc1)c1c(-c2ccc(O)cc2)sc2cc(O)ccc12 [L-Lactate ¼-hydrate] , and I need its recorded intrinsic dissolution rate (IDR).
Solution: 0.0035 μmol/min * cm^2
